Entry source: patent US20150104459A1

Assayed target: recombinant soluble homotrimeric HA of A/Solomon Islands/3/06 (H1N1) (Influenza A virus A/Solomon Islands/3/2006 (H1N1))
Test: HA microarray, BCC supernatant
Condition parameters: remark: other sources report otherwise
Give Trimeric HA Binding RLU for every item shown.
Answers are plain numbers, in RLU.

Binder	Trimeric HA Binding RLU (RLU)
TCN-535 (5246_P19) (antibody, V domains shown) VH: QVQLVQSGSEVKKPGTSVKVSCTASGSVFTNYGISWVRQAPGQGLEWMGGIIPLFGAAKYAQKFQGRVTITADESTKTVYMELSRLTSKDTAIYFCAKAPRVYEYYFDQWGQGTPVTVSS VL: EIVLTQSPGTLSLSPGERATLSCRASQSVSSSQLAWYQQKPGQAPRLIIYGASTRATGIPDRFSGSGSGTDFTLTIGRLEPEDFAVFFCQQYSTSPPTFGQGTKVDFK	39400

Okay, next one:
Kindly indicate its recorded Trimeric HA Binding RLU. Item: TCN-534 (5249_B02) (antibody, V domains shown) VH: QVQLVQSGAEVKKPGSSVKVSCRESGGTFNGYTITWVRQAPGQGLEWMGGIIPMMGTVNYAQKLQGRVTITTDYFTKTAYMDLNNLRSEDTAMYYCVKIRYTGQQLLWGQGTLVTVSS VL: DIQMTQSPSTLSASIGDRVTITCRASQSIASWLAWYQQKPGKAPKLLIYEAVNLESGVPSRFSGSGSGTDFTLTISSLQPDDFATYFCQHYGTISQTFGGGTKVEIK
44200
